Quick reference: koff of the listed items.
molecular target: T1, Recombinant human CD4 (R&D Systems, Cat. 10327-CD) (human, UniProt P01730 26-390, limits assumed); assay: BLI (Octet Red384), non-clonal supernatant on AMC sensor, 100 nM human CD4, 1:1 local fit;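 further: hybridoma antibodies captured from supernatant, single CD4 concentration as analyte, association and dissociation phases fitted together, giving single-point kinetic estimates per supernatant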
T1 construct: Bought soluble recombinant protein used as analyte at 100 nM; also called huCD4

binder	koff
75110_03I08A (antibody, V domains shown, Non-clonal AlivaMab Mouse Kappa hybridoma supernatant, captured by anti-mouse IgG Fc (human V regions, mouse Fc)) VH: QVQLQESGPGLVKPSETLSLTCTVSGGSISSYYWSWIRQPPGKGLEWIGYIYYSGSTNYNPSLKSRVTISVDTSKNQFSLKLSSVTAADTAVYYCAREGEQWFYGLDVWGQGTTVTVSS VL: EIVLTQSPGTLSLSPGERATLSCRASQSVSSTYLAWYQQKPGQAPRLLIYGSSSRATGIPDRFSGSGSGTDFTLTISRLEPEDFAVYYCQQYGNSFPITFGQGTRLEIK	< 1e-07 s⁻¹
75110_10O16A (antibody, V domains shown, Non-clonal AlivaMab Mouse Kappa hybridoma supernatant, captured by anti-mouse IgG Fc (human V regions, mouse Fc); also called 75110_10016A) VH: EVQLVESGGGLVQPGGSLRLSCAASGFTFSNSDMHWVRQATGKGLEWVSTIGTAGDTYYPGSVKGRFTISRENAKNSLYLQMNSLRAGDTAVYYCARGGLYYYGMDVWGQGTTVTVSS VL: ENVLTQSPGTLSLSPGERATLSCRASQSVSSSYLAWYQQKPGQAPRLLIYGASSRATGIPDRFSGSGSGTDFTLTISRLEPEDFAVYYCHQFGSSPFTFGPGTKVDIK	< 1e-07 s⁻¹

# context switch: different binder, same koff
Returns the measured koff for the input binder. Input: 75110_07J24A (antibody, V domains shown, Non-clonal AlivaMab Mouse Kappa hybridoma supernatant, captured by anti-mouse IgG Fc (human V regions, mouse Fc)) VH: QAQLQESGPGLVKPSETLSLTCTVSGGSISSYYYNWIRQPAGKGLEWIGRIYTSGRTDYNPSLKSRVTMSADTSKNQFSLKLSSVTAADTAVYYCARDEGPTDAFDIWGQGTMVTVSS VL: DIVMTQTPLSLPVTPGEPASISCRSSQSLLDSDDGNTYLDWYLQKPGQSPHLLIYTLSYRASGVPDRFSGSGSGSDFTLKISRVEAEDVGVYYCMQRIEFPFTFGPGTKVDIK < 1e-07 s⁻¹

Sourced from patent US20220112288A1
